measured target: human CYP11B2 (Homo sapiens)
Construct: expressed in transfected cells; host or cells: V79 Chinese hamster cells
Sequence (P19099 25-503): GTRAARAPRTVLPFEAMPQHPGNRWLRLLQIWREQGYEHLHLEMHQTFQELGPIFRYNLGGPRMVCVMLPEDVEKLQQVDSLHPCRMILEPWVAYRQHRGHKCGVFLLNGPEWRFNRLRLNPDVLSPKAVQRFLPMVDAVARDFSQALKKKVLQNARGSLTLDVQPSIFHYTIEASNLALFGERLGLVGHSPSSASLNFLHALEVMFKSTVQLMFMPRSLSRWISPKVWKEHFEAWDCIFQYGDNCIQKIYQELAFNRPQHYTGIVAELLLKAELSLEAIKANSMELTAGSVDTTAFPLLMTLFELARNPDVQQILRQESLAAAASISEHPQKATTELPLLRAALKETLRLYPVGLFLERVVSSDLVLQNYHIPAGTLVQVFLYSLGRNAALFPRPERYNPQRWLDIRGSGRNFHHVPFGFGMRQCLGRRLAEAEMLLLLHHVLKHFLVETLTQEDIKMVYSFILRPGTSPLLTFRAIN
procedure details: Inhibitor potency for human CYP11B2 in V79 cells expressing the enzyme (HPLC steroid analysis)
Assay type: cell-based
condition label: Ratio = IC50 CYP11B1/ IC50 CYP11B2 (selectivity)
measurement kind: Ratio

OCCCc1cncn1Cc1ccc(F)cc1    6.9

[a] COC(=O)c1cncn1Cc1ccc(C#N)cc1
[b] N#Cc1ccc(Cn2cncc2CO)cc1
// compare measured Ratio, left a , right b , return larger Use the label to indicate which entry you chose.
b
(b: 10, a: 6.7)

Sourced from patent EP2095819A1
